Test system: HCI-002 (organoid from a triple-negative breast cancer xenograft)
protocol-details: CTG-3D luminescence at 96 h relative to day-0 seeding control (ratio to day 0); higher = more growth / less cytotoxicity; PDxO 3D drug screen (set 2), 96 h, CTG-3D normalised to day-0 seeding control.
measurement-conditions: 0.005 µM; days in culture: 168
measured-parameter: CTG-3D luminescence at 96 h
Answers are plain numbers.

Reference set, count: 3
compound	readout-number
CC(=O)c1c(C)c2cnc(Nc3ccc(N4CCNCC4)cn3)nc2n(C2CCCC2)c1=O [palbociclib]	3.77
COc1cccc2c1C(=O)c1c(O)c3c(c(O)c1C2=O)C[C@@](O)(C(=O)CO)C[C@@H]3O[C@H]1C[C@H](N)[C@@H](O)[C@H](C)O1 [epirubicin]	3.79
O=C(c1cc(Cc2n[nH]c(=O)c3ccccc23)ccc1F)N1CCN(C(=O)C2CC2)CC1 [olaparib]	4.03

stdin: Would you please give the reported CTG-3D luminescence at 96 h of CO[C@H]1C[C@@H]2CC[C@@H](C)[C@@](O)(O2)C(=O)C(=O)N2CCCC[C@H]2C(=O)O[C@H]([C@H](C)C[C@@H]2CC[C@@H](OCCO)[C@H](OC)C2)CC(=O)[C@H](C)/C=C(\C)[C@@H](O)[C@@H](OC)C(=O)[C@H](C)C[C@H](C)/C=C/C=C/C=C/1C [everolimus] with HCI-002?
stdout: 3.32

Provenance of the data: the supplement of paper PMC8882468
